# TGT: Cannabinoid receptor 2 (Homo sapiens, UniProt P34972)
# Sequence (P34972 whole entry): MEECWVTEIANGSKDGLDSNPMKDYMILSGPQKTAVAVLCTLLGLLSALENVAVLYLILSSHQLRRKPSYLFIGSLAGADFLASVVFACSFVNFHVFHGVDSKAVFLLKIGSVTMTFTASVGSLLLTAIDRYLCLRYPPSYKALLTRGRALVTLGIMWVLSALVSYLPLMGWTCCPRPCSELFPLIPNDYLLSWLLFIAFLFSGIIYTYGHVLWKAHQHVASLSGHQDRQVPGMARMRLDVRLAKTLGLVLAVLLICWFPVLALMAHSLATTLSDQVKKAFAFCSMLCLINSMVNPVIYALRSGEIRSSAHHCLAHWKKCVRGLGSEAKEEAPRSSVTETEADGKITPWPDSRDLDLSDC
# ASSAY_COMMENT: Partial agonist activity at wild type CB2 receptor (unknown origin) expressed in HEK293T assessed as increase in ERK1/2 phosphorylation incubated for 7 mins in presence of cannabidiol by AlphaScreenSureFire method
# Assay type: functional, cell-based
PROPERTY: EC50 (nM)
Numbers only, in nM.

Q: // lookup EC50 for "CCCC(C)(C)c1cc(O)c2c(c1)OC(C)(C)[C@@H]1CC=C(C)C[C@@H]21"
Ans: 7.94

###

# TGT: Cannabinoid receptor 2 (Homo sapiens, UniProt P34972, S285L)
# Sequence (P34972 whole entry S285L): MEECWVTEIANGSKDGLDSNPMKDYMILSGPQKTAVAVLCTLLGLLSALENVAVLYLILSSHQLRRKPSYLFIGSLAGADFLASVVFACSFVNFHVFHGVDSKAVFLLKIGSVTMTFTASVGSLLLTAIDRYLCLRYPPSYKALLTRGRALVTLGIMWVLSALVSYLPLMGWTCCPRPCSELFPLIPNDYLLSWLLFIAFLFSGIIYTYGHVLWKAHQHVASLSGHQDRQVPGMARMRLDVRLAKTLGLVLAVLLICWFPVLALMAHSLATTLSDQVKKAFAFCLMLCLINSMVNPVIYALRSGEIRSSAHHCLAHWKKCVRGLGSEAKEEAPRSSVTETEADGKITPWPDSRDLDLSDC
# ASSAY_COMMENT: Partial agonist activity at CBR2 S2857.39L mutant (unknown origin) stably expressed in HEK293T assessed as decrease in forskolin induced cAMP level preincubated for 15 mins followed by forskolin addition incubated for 15 mins by HTRF assay
# Format: functional, cell-based
PROPERTY: pEC50
Give bare numbers, as −log10 of the molar value.

Q: // lookup pEC50 for "CCCC(C)(C)c1cc(O)c2c(c1)OC(C)(C)[C@@H]1CC=C(C)C[C@@H]21"
Ans: 7.40

###

# TGT: UniProtKB P34972
# ASSAY_COMMENT: Partial agonist activity at wild type CB2 receptor (unknown origin) stably expressed in HEK293T assessed as decrease in forskolin induced cAMP level preincubated for 15 mins followed by forskolin addition incubated for 15 mins in presence of cannabidiol by HTRF assay
# Type: functional, cell-based
PROPERTY: EC50 (nM)
One number for each entry, in nM.

Q: // lookup EC50 for "CCCC(C)(C)c1cc(O)c2c(c1)OC(C)(C)[C@@H]1CC=C(C)C[C@@H]21"
Ans: 50.1

###

# TGT: UniProtKB P34972
# ASSAY_COMMENT: Partial agonist activity at wild type CB2 receptor (unknown origin) expressed in HEK293T assessed as increase in ERK1/2 phosphorylation incubated for 7 mins by AlphaScreenSureFire method
# Type: functional, cell-based
PROPERTY: EC50
State the value with its unit after it.

Q: // lookup EC50 for "CCCC(C)(C)c1cc(O)c2c(c1)OC(C)(C)[C@@H]1CC=C(C)C[C@@H]21"
Ans: 7.94 nM

###

# TGT: Cannabinoid receptor 2 (Homo sapiens, UniProt P34972, V113M)
# Sequence (P34972 whole entry V113M): as the sequence (P34972 whole entry S285L) above, with V113M, L285S counted along it
# ASSAY_COMMENT: Partial agonist activity at CBR2 V1133.32M mutant (unknown origin) expressed in HEK293T assessed as increase in ERK1/2 phosphorylation incubated for 7 mins by AlphaScreenSureFire method
# Type: functional, cell-based
PROPERTY: pEC50
Give bare numbers, as −log10 of the molar value.

Q: // lookup pEC50 for "CCCC(C)(C)c1cc(O)c2c(c1)OC(C)(C)[C@@H]1CC=C(C)C[C@@H]21"
Ans: 7.70

###

# TGT: Cannabinoid receptor 2 (Homo sapiens, UniProt P34972, A282M)
# Sequence (P34972 whole entry A282M): as the sequence (P34972 whole entry) above, with A282M counted along it
# ASSAY_COMMENT: Partial agonist activity at CBR2 A2827.36M mutant (unknown origin) stably expressed in HEK293T assessed as decrease in forskolin induced cAMP level preincubated for 15 mins followed by forskolin addition incubated for 15 mins by HTRF assay
# Type: functional, cell-based
PROPERTY: pEC50
One number for each entry, as −log10 of the molar value.

Q: // lookup pEC50 for "CCCC(C)(C)c1cc(O)c2c(c1)OC(C)(C)[C@@H]1CC=C(C)C[C@@H]21"
Ans: 7.90

Cited source: ChEMBL document CHEMBL5096191
